Listed below: self-cleavage values for each entry.
B1: OR4K15 (parent)
chain: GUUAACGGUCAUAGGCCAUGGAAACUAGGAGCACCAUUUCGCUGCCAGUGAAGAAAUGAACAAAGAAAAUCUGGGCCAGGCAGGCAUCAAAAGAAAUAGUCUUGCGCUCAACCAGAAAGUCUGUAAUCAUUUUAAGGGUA

- Variants of: B1
- protocol-notes: self-cleavage, relative activity (ratio to wild type); higher = more cleavage; in vitro, sequencing; the parent is a self-cleaving ribozyme
API note: the answer field is a bare number with no unit suffix.

Guide cases for self-cleavage, answers given:
G15A U70A :: 0.96
U38C A63U :: 0.76
U39C A55U :: 2.15
A23G A30U :: 0.82
U37C C105U :: 0.15

**Query** Given the variant A82U A135G , what is its reported self-cleavage?
**Result** 0.22

**Query** Try this variant too: U19C A55U
**Result** 1.69
